Catalogue of melting point readings, one per entry.

Please review the entries below; each comes with its answer.
Query :: State the recorded melting point for this entry: CN(C)CCNC(=O)C(C)(C)OCc1nn(Cc2ccccc2)c2ccccc12.Cl [Compound 13]
Result :: 136 to 137 °C

Query :: State the recorded melting point for this entry: CN1CCN(C(=O)C(C)(C)OCc2nn(Cc3ccccc3)c3ccccc23)CC1 [Compound 15]
Result :: 97 to 98 °C

Query :: State the recorded melting point for this entry: CC(C)(OCc1nn(Cc2ccccc2)c2ccccc12)C(=O)Nc1ccccn1 [Compound 14]
Result :: 121 to 122 °C

Query :: State the recorded melting point for this entry: CC(C)(OCc1nn(Cc2ccccc2)c2ccccc12)C(=O)NO [Compound 10]
Result :: 115 to 116 °C

Query :: State the recorded melting point for this entry: CC(C)(OCc1nn(Cc2ccccc2)c2ccccc12)C(=O)NN [Compound 11]
Result :: 92 to 93 °C

Next:
Query :: State the recorded melting point for this entry: CC(C)(OCc1nn(Cc2ccccc2)c2ccccc12)C(N)=O [Compound 9]
Result :: 111 to 112 °C

Query :: State the recorded melting point for this entry: CC(C)(OCc1nn(Cc2ccccc2)c2ccccc12)C(=O)NNc1ccccc1 [Compound 27]
Result :: 124 to 125 °C
